Listed compounds paired with reported Population Fragmented Nuclei (%)
# Tested on: Fibroblast
# experimentNotes: Multiplex assay against human fibroblast
# Type: toxicity, cell-based
# assayConditions: 24 h, 10 µM, compound concentration 10 uM, replicate 1
The reply should contain only the number, in %.

Solved entries:
[[record]]
compound = "O=C(O)c1ccc2cc(-c3ccc(O)c(C45CC6CC(CC(C6)C4)C5)c3)ccc2c1 [O-DEMETHYLATED ADAPALENE]"
reported = 28

[[record]]
compound = "COc1cc2c(Nc3ccc(NC(=O)c4ccccc4)cc3)ncnc2cc1OCCCN1CCOCC1"
reported = 31

[[record]]
compound = "CCC(=O)O[C@]1(C(=O)SCF)[C@H](C)C[C@H]2[C@@H]3C[C@H](F)C4=CC(=O)C=C[C@]4(C)[C@@]3(F)[C@@H](O)C[C@@]21C [FLUTICASONE PROPIONATE]"
reported = 30

[[record]]
compound = "CNC(=O)c1cc(Oc2ccc(NC(=O)Nc3cc(C(C)(C)C)nn3-c3ccc4ncccc4c3)c(F)c2)ccn1 [REBASTINIB]"
reported = 24

[[record]]
compound = "Cl.Cl.NC1(c2ccc(-c3nc4ccn5c(=O)[nH]nc5c4cc3-c3ccccc3)cc2)CCC1"
reported = 17


Now take the following compound into account.
Let me know recorded Population Fragmented Nuclei (%) for Nc1nc2c(c(N3CCNCC3)n1)CCC1=C2[C@@H]2CCCC[C@@H]2O1 , thanks.
20

* * *

# System: HEK-293T
# experimentNotes: Multiplex assay against HEK293T
# Assay type: toxicity, cell-based
# assayConditions: human, 12 h, 1 µM, compound concentration 1 uM, replicate 2
Threshold check on Population Apoptotic (%): at or above 10% gives 1 (yes), strictly below gives 0 (no).

Reference set, count: 3
[[record]]
compound = "O=C(O)c1ccc2cc(-c3ccc(O)c(C45CC6CC(CC(C6)C4)C5)c3)ccc2c1"
label = "1 (yes)"

[[record]]
compound = "COc1ccc(NS(=O)(=O)c2sc3ccc(Cl)cc3c2C)cc1N1CCNCC1.Cl"
label = "1 (yes)"

[[record]]
compound = "COc1cc(N2CCC(N(C)C)CC2)ccc1Nc1ncc(Cl)c(Nc2ccccc2P(C)(C)=O)n1"
label = "1 (yes)"


// inclusive: Population Apoptotic (%) at least 10%? input: COc1cc2c(Nc3ccc(NC(=O)c4ccccc4)cc3)ncnc2cc1OCCCN1CCOCC1
1 (yes)

// inclusive: Population Apoptotic (%) at least 10%? input: CCC(=O)O[C@]1(C(=O)SCF)[C@H](C)C[C@H]2[C@@H]3C[C@H](F)C4=CC(=O)C=C[C@]4(C)[C@@]3(F)[C@@H](O)C[C@@]21C [FLUTICASONE PROPIONATE]
0 (no)

// inclusive: Population Apoptotic (%) at least 10%? input: COc1cc2c(NC3CCN(C(C)C)CC3)nc(N3CCC(F)(F)CC3)nc2cc1OCCCN1CCCC1
1 (yes)

// inclusive: Population Apoptotic (%) at least 10%? input: Cl.Cl.Nc1ncnc2c1c(-c1cccc(OCc3ccccc3)c1)cn2[C@H]1C[C@@H](CN2CCC2)C1
1 (yes)

* * *

# Tested on: U2OS
# experimentNotes: Multiplex assay against U2OS
# Format: toxicity, cell-based
# assayConditions: human, 24 h, 1 µM, compound concentration 1 uM, replicate 1
Threshold check on Total Cell Count: at or above 200 gives Y, strictly below gives N.

Reference set, count: 4
[[record]]
molecule = "c1ccc2oc(-c3csc(C4CCN(Cc5nc6ncccc6[nH]5)CC4)n3)cc2c1"
label = "Y"

[[record]]
molecule = "CCc1cc2c(cc1CC)CC(NC[C@H](O)c1ccc(O)c3[nH]c(=O)ccc13)C2 [INDACATEROL]"
label = "N"

[[record]]
molecule = "Cl.Cl.NC1(c2ccc(-c3nc4ccn5c(=O)[nH]nc5c4cc3-c3ccccc3)cc2)CCC1"
label = "N"

[[record]]
molecule = "Cc1nc(Cc2cccc(C(F)(F)F)c2)sc1-c1ccc(C(N)=O)nc1 [TP-024n]"
label = "N"


// inclusive: Total Cell Count at least 200? input: COc1cc2c(Nc3ccc(NC(=O)c4ccccc4)cc3)ncnc2cc1OCCCN1CCOCC1
N

// inclusive: Total Cell Count at least 200? input: N#Cc1cnc(Nc2cc(NC[C@H]3CNCCO3)c(C(F)(F)F)cn2)cn1 [SRA-737]
Y

// inclusive: Total Cell Count at least 200? input: CN(C)CCOc1ccc(-c2nc(-c3ccncc3)c(-c3ccc4c(c3)CC/C4=N\O)[nH]2)cc1 [SB590885]
Y

* * *

# System: HEK-293T
# experimentNotes: Multiplex assay against HEK293T
# Type: toxicity, cell-based
# assayConditions: human, 24 h, 10 µM, compound concentration 10 uM, replicate 2
Assign labels as follows, please: Yes for Population Pyknosed Nuclei (%) below 30%; No for Population Pyknosed Nuclei (%) equal to or exceeding 30%.

Reference set, count: 3
[[record]]
compound = "CCn1c(-c2nonc2N)nc2cnc(Oc3cccc(NC(=O)c4ccc(OCCN5CCOCC5)cc4)c3)cc21 [GSK-269962A]"
label = "No"

[[record]]
compound = "CCCn1c(=O)c2[nH]c(C34CC5CC(CC3C5)C4)nc2n(CCC)c1=O"
label = "No"

[[record]]
compound = "CC(C)N1CCC(C)(C)c2cc(C#Cc3ccc(C(=O)O)cc3)ccc21"
label = "Yes"


Bench note: check whether CCOc1cc2ncc(C#N)c(Nc3ccc(OCc4cccc(F)c4)c(Cl)c3)c2cc1NC(=O)/C=C/CN(C)C shows Population Pyknosed Nuclei (%) below 30%
Yes

Bench note: check whether c1ccc2oc(-c3csc(C4CCN(Cc5nc6ncccc6[nH]5)CC4)n3)cc2c1 shows Population Pyknosed Nuclei (%) below 30%
Yes

Bench note: check whether CNc1oc(-c2cccc3ccccc23)nc1C#N shows Population Pyknosed Nuclei (%) below 30%
Yes

Bench note: check whether Cc1cn(-c2cc(NC(=O)c3ccc4c(c3)CN(c3cncnc3)C[C@@H]4C)cc(C(F)(F)F)c2)cn1 shows Population Pyknosed Nuclei (%) below 30%
Yes

Bench note: check whether CN(C)CCOc1ccc(-c2nc(-c3ccncc3)c(-c3ccc4c(c3)CC/C4=N\O)[nH]2)cc1 shows Population Pyknosed Nuclei (%) below 30%
Yes

Bench note: check whether COc1ccc(NS(=O)(=O)c2sc3ccc(Cl)cc3c2C)cc1N1CCNCC1.Cl shows Population Pyknosed Nuclei (%) below 30%
No

Bench note: check whether COc1cc2c(NC3CCN(C(C)C)CC3)nc(N3CCC(F)(F)CC3)nc2cc1OCCCN1CCCC1 shows Population Pyknosed Nuclei (%) below 30%
No

Bench note: check whether COc1cc2c(Nc3ccc(NC(=O)c4ccccc4)cc3)ncnc2cc1OCCCN1CCOCC1 shows Population Pyknosed Nuclei (%) below 30%
Yes

Bench note: check whether Cc1nc(Cc2cccc(C(F)(F)F)c2)sc1-c1ccc(C(N)=O)nc1 [TP-024n] shows Population Pyknosed Nuclei (%) below 30%
No

Bench note: check whether CCC(=O)O[C@]1(C(=O)SCF)[C@H](C)C[C@H]2[C@@H]3C[C@H](F)C4=CC(=O)C=C[C@]4(C)[C@@]3(F)[C@@H](O)C[C@@]21C [FLUTICASONE PROPIONATE] shows Population Pyknosed Nuclei (%) below 30%
No

Bench note: check whether O=C(O)c1ccc2cc(-c3ccc(O)c(C45CC6CC(CC(C6)C4)C5)c3)ccc2c1 shows Population Pyknosed Nuclei (%) below 30%
No

Bench note: check whether N#Cc1cnc(Nc2cc(NC[C@H]3CNCCO3)c(C(F)(F)F)cn2)cn1 shows Population Pyknosed Nuclei (%) below 30%
Yes

Bench note: check whether CNC(=O)c1cc(Oc2ccc(NC(=O)Nc3cc(C(C)(C)C)nn3-c3ccc4ncccc4c3)c(F)c2)ccn1 shows Population Pyknosed Nuclei (%) below 30%
Yes

Bench note: check whether CC(C)(C)c1cnc(CSc2cnc(NC(=O)C3CCNCC3)s2)o1 shows Population Pyknosed Nuclei (%) below 30%
Yes

Bench note: check whether CN(C)C/C=C/C(=O)Nc1cc2c(Nc3ccc(F)c(Cl)c3)ncnc2cc1O[C@H]1CCOC1.O=C(O)/C=C\C(=O)O.O=C(O)/C=C\C(=O)O [AFATINIB DIMALEATE] shows Population Pyknosed Nuclei (%) below 30%
No

Bench note: check whether Cl.Cl.NC1(c2ccc(-c3nc4ccn5c(=O)[nH]nc5c4cc3-c3ccccc3)cc2)CCC1 shows Population Pyknosed Nuclei (%) below 30%
No

Bench note: check whether CC(=O)c1cc(-c2cc(C(=O)NC3CC3)ccc2C)c2ncccn12 shows Population Pyknosed Nuclei (%) below 30%
No

* * *

# Test system: U2OS
# experimentNotes: Multiplex assay against U2OS
# Type: toxicity, cell-based
# assayConditions: human, 48 h, 10 µM, compound concentration 10 uM, replicate 1
Threshold check on Population Hoechst High Intensity Objects (%): at or above 10% gives MET, strictly below gives NOT MET.

Reference set, count: 4
[[record]]
structureassmiles = "CCc1cc2c(cc1CC)CC(NC[C@H](O)c1ccc(O)c3[nH]c(=O)ccc13)C2"
label = "NOT MET"

[[record]]
structureassmiles = "Nc1ccc(C(=O)Nc2cccc(-c3nc(N4CCOCC4)c4oc5ncccc5c4n3)c2)cn1"
label = "MET"

[[record]]
structureassmiles = "COc1ccc(NS(=O)(=O)c2sc3ccc(Cl)cc3c2C)cc1N1CCNCC1.Cl"
label = "MET"

[[record]]
structureassmiles = "Cc1cc2c(cc1N1C(=O)c3cccc4c(CCCO)ccc(c34)C1=O)n(C)c(=O)n2C"
label = "NOT MET"


Could you now consider this next compound?
// inclusive: Population Hoechst High Intensity Objects (%) at least 10%? input: COc1cc2c(NC3CCN(C(C)C)CC3)nc(N3CCC(F)(F)CC3)nc2cc1OCCCN1CCCC1
MET
